# TGT: T1, PTPRG-Fc (ECD of human PTPRG, aa 20-736, fused to human Fc gamma 1) (human, UniProt P23470 20-736)
# T1 construct: Made in-house in Expi293 cells; Used in ELISA and SPR; also called recombinant PTPRG-Fc; PTRPG; not shown: human IgG1 Fc (Fc gamma 1) after the hinge
# T1 sequence: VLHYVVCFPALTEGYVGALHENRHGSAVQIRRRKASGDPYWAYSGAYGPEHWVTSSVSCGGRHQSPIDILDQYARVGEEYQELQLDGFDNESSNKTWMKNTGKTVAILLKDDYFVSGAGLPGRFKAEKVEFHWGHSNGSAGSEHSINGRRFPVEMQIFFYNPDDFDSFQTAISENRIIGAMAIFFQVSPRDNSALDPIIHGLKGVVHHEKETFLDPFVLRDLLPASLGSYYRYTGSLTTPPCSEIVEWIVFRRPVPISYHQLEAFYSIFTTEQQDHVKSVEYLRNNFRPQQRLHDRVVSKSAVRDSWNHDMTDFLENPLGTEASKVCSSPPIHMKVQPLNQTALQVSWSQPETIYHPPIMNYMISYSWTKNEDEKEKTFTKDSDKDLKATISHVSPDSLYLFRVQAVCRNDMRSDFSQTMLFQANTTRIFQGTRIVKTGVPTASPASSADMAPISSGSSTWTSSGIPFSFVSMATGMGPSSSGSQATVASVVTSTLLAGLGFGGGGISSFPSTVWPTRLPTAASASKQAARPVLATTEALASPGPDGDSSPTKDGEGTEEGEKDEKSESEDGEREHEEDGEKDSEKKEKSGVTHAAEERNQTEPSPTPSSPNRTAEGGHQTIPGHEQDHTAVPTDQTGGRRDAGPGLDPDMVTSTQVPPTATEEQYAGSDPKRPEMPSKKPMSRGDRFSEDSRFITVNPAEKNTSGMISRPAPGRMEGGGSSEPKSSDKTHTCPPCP
# PROTOCOL TEXT: SPR, Biacore X100; PTPRG-Fc captured by anti-human Fc on CM5, Fab injected; mean of triplicates (SD)
Provide the reported koff of each item.
I only need the number, in s⁻¹, no unit after it.

Incoming: Record request: koff value, item HW-25 Fab (chimeric rabbit/human, His-tagged) (Fab, V domains shown, Monovalent Fab: rbVH-huCH1 and rbVL-huCL, His-tagged, made in E. coli from pET11a) VH: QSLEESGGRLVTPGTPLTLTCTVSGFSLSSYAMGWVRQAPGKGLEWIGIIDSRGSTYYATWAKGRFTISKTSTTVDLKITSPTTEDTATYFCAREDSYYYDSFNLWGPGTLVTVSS VL: SFVLTQPASVQVNLGQTVSLTCTADTLSRRYASWYQQKPGQAPVLLIYRDTSRPSGVPDRFSGSSSGNTATLTISGAQAGDEADYYCATSDGSGSSYQCVFGGGTQLTVT
Outgoing: 0.000367

Incoming: Similarly, HW-1 Fab (chimeric rabbit/human, His-tagged) (Fab, V domains shown, Monovalent Fab: rbVH-huCH1 and rbVL-huCL, His-tagged, made in E. coli from pET11a) VH: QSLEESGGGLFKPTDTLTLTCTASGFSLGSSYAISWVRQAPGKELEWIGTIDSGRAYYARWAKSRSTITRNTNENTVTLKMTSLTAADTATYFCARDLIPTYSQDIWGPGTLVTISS VL: SFVLTQPASVQVNLGQTVSLTCTADTLSRRYASWYQQKPGQAPVLLIYRDTSRPSGVPDRFSGSSSGNTATLTISGAQAGDEADYYCATSDGSGNSYQYVFGGGTQLTVT ?
Outgoing: 0.000482

Incoming: Similarly, HW-70 Fab (chimeric rabbit/human, His-tagged) (Fab, V domains shown, Monovalent Fab: rbVH-huCH1 and rbVL-huCL, His-tagged, made in E. coli from pET11a) VH: QSLEESGGRLVTPGTPLTLTCTVSGFSLSSNAMSWVRQAPGKGLEWIGTIDGYGYTYYASWAKGRFTVSKTSTTVDLKITSPTTEDTATYFCAREIYLGSNFWGPGTLVTISS VL: SFVLTQPASVQVNLGQTVSLTCTADTLSRRYASWYQQKPGQAPVLLIYRDTSRPSGVPDRFSGSSSGNTATLTISGAQAGDEADYYCATADGSGSSYQFVFGGGTQLTVT ?
Outgoing: 0.0153
